assay: NCI Yeast Anticancer Drug Screen. Data for the sgs1 strain (AID 173);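 note: 0% = growth of vehicle-only control cultures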; conditions: S. cerevisiae sgs1 mutant, at 33.0 µM, stronger effect = higher value
This is part of a sample that, as a whole, favours compounds with a hit. Of some 79,000 tested, about 15% had one in any assay.
Tag: label 1 if measured growth inhibition is not below 20%, label 0 if it is.

compound: Nc1cc2ccccc2cc1N
category: label 1
//
compound: O=C(NNc1ccccc1)C(CCCCNS(=O)(=O)Cc1ccccc1)NS(=O)(=O)Cc1ccccc1 (stereo not given)
category: label 1
//
compound: O=C1C(=O)c2cccc([N+](=O)[O-])c2-c2ccccc21
category: label 1
//
compound: CCN(CC)CCNc1ccc2ncn3c4ccc(O)cc4c(=O)c1c23
category: label 0
//
compound: O=C1CSC(c2ccccc2)N1c1ccc(-c2ccc(-n3c(-c4ccccc4)nc4ccccc4c3=O)cc2)cc1 (stereo not given)
category: label 1
//
compound: O=C(Nc1ccc(Cl)cc1)c1cc2cc(N=Nc3ccccc3Cl)ccc2oc1=O
category: label 1
//
compound: COC(=O)C(Cc1c[nH]c2ccccc12)N1CN(C)c2ccccc2C1=O (stereo not given)
category: label 0
//
compound: COc1cccc(C(NC2=NCCC=N2)c2cc3c(cc2O)OCO3)c1O (stereo not given)
category: label 1
//
compound: O=[N+]([O-])[O][Sn]([O][Sn]([O][N+](=O)[O-])([c]1ccccc1)[c]1ccccc1)([c]1ccccc1)[c]1ccccc1
category: label 1
//
compound: CC(C)OC(=O)NNc1cc(Cl)ccc1Cl
category: label 1
//
compound: O=C1Nc2ccc(Br)cc2C1=Nc1cccnc1
category: label 0
//
compound: NNc1ccccc1-c1nc2ccccc2[nH]1
category: label 0
//
compound: C/C(=N\Sc1ccccc1)c1ccccc1O
category: label 1
//
compound: CC(C(=O)N1C(=O)N(C(=O)C(C)C(O)c2ccccc2)C2CCCCC21)C(O)c1ccccc1 (stereo not given)
category: label 1
//
compound: CC(C)Cc1ncc(CCCN=C(N)N)[nH]c1=O
category: label 0
//
compound: CSC(=S)N/N=C/c1ccccc1
category: label 1
//
compound: CC(/C=C/c1ccc([N+](=O)[O-])o1)=N/N1CC(CN2CCOCC2)OC1=O (stereo not given)
category: label 1
//
compound: CCCCCCCCCCCNC=O
category: label 0
//
compound: CC(CC/C(=N/O)c1ccccc1)(CC/C(=N\O)c1ccccc1)[N+](=O)[O-] (stereo not given)
category: label 0
//
compound: O=C1NC(c2cccc(OCc3ccccc3)c2)Nc2ccccc21 (stereo not given)
category: label 0
//
compound: C1=CCN([B-](c2ccccc2)[C+]2CCCCC2)C=C1
category: label 1
//
compound: O=C1C(=O)N(c2ccccc2)[C@@]2(c3ccccc3)C(=Nc3ccccc3)OC(c3ccccc3)=C12
category: label 1
//
compound: CN(C)CCNCCCNc1c2ccccc2nc2cccc([N+](=O)[O-])c12
category: label 1
//
compound: O=C1c2ccccc2C(=O)c2sc(Nc3ccccc3Cl)nc21
category: label 1
//
compound: O=[N+]([O-])c1cc(Cl)ccc1S(=O)(=O)c1ccc(Cl)cc1[N+](=O)[O-]
category: label 1
//
compound: COC(=O)C1=C(C(=O)OC)CC(n2nnc(C(=O)OC)c2C(=O)OC)=CC1
category: label 0
//
compound: CC1=CC(=C(c2ccc(N)c(C)c2)c2ccc(N)c(C)c2)C=CC1=N
category: label 1
//
compound: O=c1cccccc1[O-].O=c1cccccc1[O-].O=c1cccccc1[O-].[Eu+3]
category: label 1
//
compound: CCN(CC)CCNc1ccc2nc(C)n3c4ccc(O)cc4c(=O)c1c23
category: label 0
//
compound: COc1ccc2nc(CCc3ccccc3)ccc2c1
category: label 1
//
compound: Oc1c2c(c(O)c3ccccc13)C1(N=N2)c2ccccc2Oc2ccccc21
category: label 1
//
compound: O=C1C2=C(c3ccccc31)C(c1ccccc1)N1C(=O)CSC1=N2 (stereo not given)
category: label 1
//
compound: O=C(NCCCCN(CCCNC(=O)C(F)(F)F)Cc1ccccc1)C(F)(F)F
category: label 0
//
compound: Fc1cc(F)c(F)c(S)c1F
category: label 1
//
compound: CCC(=O)Nc1ccc(N=NN(C)C)cc1
category: label 1
//
compound: CC1=CC(C)(C)SC(SSSC2=NC(C)=CC(C)(C)S2)=N1
category: label 0
//
compound: CCC[CH2][Ge]([CH2]CCC)([CH2]CCC)[O]C(=O)C(O)c1ccccc1 (stereo not given)
category: label 1
//
compound: CCN(CC)CCNc1ccc2nc(C)n3c4ccc(OC)cc4c(=O)c1c23
category: label 0
//
compound: c1cc(-c2sc(-c3ccncc3)c(-c3ccncc3)c2-c2ccncc2)ccn1
category: label 1
//
compound: O=[N+]([O-])c1cccc2nc3ccccc3c(NCCCN3CCCCC3)c12
category: label 1
//
compound: CCOC(=O)/C(=C/c1cccc(Cl)c1)N(CC)CC
category: label 1
//
compound: COc1ccc(C(C)c2cc3c(cc2OCC(C)=O)OCO3)cc1 (stereo not given)
category: label 0
//
compound: CNCC(C)CNC
category: label 0
//
compound: CCOc1ccc(N)c(S)c1
category: label 1
//
compound: OC(CC(O)(C(F)(F)F)C(F)(F)F)c1ccc(C(O)CC(O)(C(F)(F)F)C(F)(F)F)cc1 (stereo not given)
category: label 1

====

Some compounds, each annotated with its measured growth inhibition.
assay: NCI Yeast Anticancer Drug Screen. Data for the rad50 strain (AID 155);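 note: 0% = growth of vehicle-only cultures of the same strain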; conditions: S. cerevisiae rad50 strain growth inhibition; at 33.0 µM; stronger effect = higher value
Compounds without any hit were thinned out: in the full panel of roughly 79,000, 15% have a hit. Calls of active or inactive are those of the source. Cut-off read from the data, not from the text of the source: active = growth inhibition above about 70%; inactive = the rest.

compound: CNC(=S)N/N=C(/C)CCC/C(C)=N/NC(=S)NC
growth inhibition: 89% (active)
//
compound: CC(C)[Si]1(C(C)C)OCC2OC(n3cnc4c(N)ncnc43)C(N)C2O[Si](C(C)C)(C(C)C)O1 (stereo unspecified)
growth inhibition: 98% (active)
//
compound: CN(C)CCNCCCNc1c2ccccc2nc2cccc([N+](=O)[O-])c12
growth inhibition: 88% (active)
//
compound: Oc1c2c(c(O)c3ccccc13)C1(N=N2)c2ccccc2Oc2ccccc21
growth inhibition: 94% (active)
//
compound: CCCCS/C(=C(/C#N)C(N)=O)c1cc2c([nH]1)CCCC2
growth inhibition: 28% (inactive)
//
compound: O=C1Nc2ccc(Br)cc2C1=Nc1cccnc1
growth inhibition: -25% (inactive)
//
compound: O=C1c2ccccc2C(=O)c2sc(Nc3ccccc3Cl)nc21
growth inhibition: 98% (active)
//
compound: O=[N+]([O-])c1cn[n+]([O-])c2ccccc12
growth inhibition: 97% (active)
//
compound: CC(=O)Oc1ccc2c(c1)Cc1cc(N3C(=O)C=CC3=O)ccc1-2
growth inhibition: 96% (active)
//
compound: COc1cccc(C(NC2=NCCC=N2)c2cc3c(cc2O)OCO3)c1O (stereo unspecified)
growth inhibition: 26% (inactive)
//
compound: Cc1cccc(/C=N/NC(=S)NC2CCCCC2)n1
growth inhibition: 13% (inactive)
//
compound: COc1ccc(N=c2cc(-c3ccccc3)oc3ccccc23)cc1
growth inhibition: 0% (inactive)
//
compound: O=C(C(Cl)=C(N1CCCCC1)N1CCCCC1)C(Cl)Cl
growth inhibition: 5% (inactive)
//
compound: CC1CCC(C2=CSC3CCCCC3N2)CC1 (stereo unspecified)
growth inhibition: 37% (inactive)
//
compound: NC(CCCCCCCCCCCCC(N)C(=O)c1ccccc1)C(=O)c1ccccc1 (stereo unspecified)
growth inhibition: 85% (active)
//
compound: O=S(=O)(c1ccccc1)N1CN2CN(C1)CN(S(=O)(=O)c1ccccc1)C2
growth inhibition: -12% (inactive)
//
compound: O=C1c2cccc3cccc(c23)C(=O)N1O
growth inhibition: 54% (inactive)
//
compound: Cc1cc(O)c(C(C)C)cc1SC#N
growth inhibition: 19% (inactive)
//
compound: CCN1CCC(O)(c2ccc(Oc3ccc(Cl)cc3)cc2)C(C(=O)c2ccc(Oc3ccc(Cl)cc3)cc2)C1 (stereo unspecified)
growth inhibition: -30% (inactive)
//
compound: CC(=O)O[C@H]1CC[C@@]2(C)C(=CC[C@@H]3C2CC[C@]2(C)C(=O)NC(=O)CC32)C1 (stereo partly specified)
growth inhibition: -25% (inactive)
//
compound: O=C(c1ccccc1)[C@H]1Nc2ccc(Cl)cc2[C@H]2OCCC[C@@H]12
growth inhibition: 33% (inactive)
//
compound: CCOP(=O)(OCC)/C(C#N)=C/c1ccc(-c2ccc(F)cc2F)o1
growth inhibition: 3% (inactive)
//
compound: O/N=c1/ccn(O)c2ccccc12
growth inhibition: 96% (active)
//
compound: Cc1cccc(C)c1NC(=O)C(C#N)C1=C(Cl)C(=O)c2ccccc2C1=O (stereo unspecified)
growth inhibition: 97% (active)
//
compound: Nc1ccc(N=Nc2ccc(-c3ccc(O)cc3)cc2)c2ccc(S(=O)(=O)O)cc12
growth inhibition: 25% (inactive)
//
compound: N#[N+]c1c([O-])c2ccccc2c2ccccc12
growth inhibition: 96% (active)
//
compound: O=C(Nc1cccs1)c1ccccc1
growth inhibition: 42% (inactive)
//
compound: COc1ccc(C2CC(C)(N3CCCC3)Oc3cc4c(cc32)OCO4)cc1 (stereo unspecified)
growth inhibition: 37% (inactive)
//
compound: CC1=NN(C(=O)CC(=O)NC(=O)/C=C\c2ccccc2)C(=O)C1N=Nc1ccc([N+](=O)[O-])cc1 (stereo unspecified)
growth inhibition: 73% (active)
//
compound: O=C(Nn1c(-c2ccccc2)nc2ccccc2c1=O)c1ccc(CS)cc1
growth inhibition: 47% (inactive)
//
compound: O=[N+]([O-])c1cccc2nc3ccccc3c(NCCCN3CCCCC3)c12
growth inhibition: 96% (active)
//
compound: c1c[nH]c(CN2CCN(Cc3ncc[nH]3)CC2)n1
growth inhibition: 97% (active)
//
compound: CC(C)(CN1CCCCC1)C(=O)/C=C/c1c(Cl)cccc1Cl
growth inhibition: 97% (active)
//
compound: O=C1C[C@H]2[C@H](c3ccc(Br)cc3)[C@H]3C(=O)c4ccccc4NC(=O)[C@@H]3[C@@]2(O)c2ccccc2N1
growth inhibition: 35% (inactive)
//
compound: CC(C)C(=O)CC(Sc1ccc(N)cc1)c1ccccc1 (stereo unspecified)
growth inhibition: 24% (inactive)
//
compound: CSc1nc(-c2ccccc2)nc(=[N+]2CCOCC2)s1
growth inhibition: 94% (active)
//
compound: c1ccc2c(c1)N=C1CCCC3CCCC123 (stereo unspecified)
growth inhibition: 32% (inactive)
//
compound: CC1=CC(=O)C=CC1=Nc1cc(Cl)c(O)c(Cl)c1
growth inhibition: 62% (inactive)
//
compound: O=C(/C(=C/c1ccc(O)cc1)c1ccccc1)c1ccccc1
growth inhibition: 98% (active)
//
compound: CCOC(=S)SSSC(=S)OCC
growth inhibition: 99% (active)
//
compound: CC1=C(C)C(=O)C2=C(OCCO2)C1=O
growth inhibition: 33% (inactive)
//
compound: CC(=O)N1C=Cc2c(c(C)c3c([nH]c4ccccc43)c2C)C1
growth inhibition: 96% (active)
//
compound: BrC1C2CCC3OC3C12 (stereo unspecified)
growth inhibition: 97% (active)
//
compound: CCC[CH2][Ge]([CH2]CCC)([CH2]CCC)[O]C(=O)C(O)c1ccccc1 (stereo unspecified)
growth inhibition: 90% (active)
//
compound: Nc1cc2ccccc2cc1N
growth inhibition: 12% (inactive)
//
compound: O=c1[nH]c2c([N+](=O)[O-])cccc2c2ccccc12
growth inhibition: 53% (inactive)
